# credit: patent US20010044445A1

System: Human peripheral blood mononuclear cells
Assay: Human Concanavalin-A Proliferation Assay (Con HU Assay)
Assay type: cell-based
Conditions: Homo sapiens, PBMC, 72 h, concentration 10 μm (in parentheses in the cell); concanavalin-A stimulated human PBMC, 3 days; read-out: % Inhibition of proliferation (at concentrations of 1,10, or 100 μm)
Protocol: Human peripheral blood mononuclear cells were cultured in RPMI 1640 medium supplemented with 10 μg/ml gentamicin, 50 μM 2-mercaptoethanol, 1X MEM non-essential amino acids (Sigma Chemical Co., St. Louis, Mo.), 100 U/ml sodium penicillin G, 100 μg/ml streptomycin sulfate, 2 mM L-glutamine, 1 mM sodium pyruvate (Life Technologies, Grand Island, N.Y.) and 10% fetal bovine serum (Hyclone, Logan, Utah) at 37° C. with 5% CO2. […]
Exercise: state measured inhibition at 10 µM for each of the molecules provided.
Give just the numeric value; % need not be written.

Challenge: Could you please provide reported inhibition at 10 µM for COC(=O)c1ccc(C(=O)Nc2ccc(-n3nc(C(F)(F)F)cc3C(F)(F)F)cc2)cc1 [Example 142] ? Thanks!
Response given: 99

Challenge: Please look at this molecule and report its inhibition at 10 µM: COc1ccc(C(=O)Nc2ccc(-n3nc(C(F)(F)F)cc3C(F)(F)F)cc2)c(Cl)c1 [Example 215]
Response given: 100

Challenge: State its inhibition at 10 µM for this molecule: CC1(C(=O)Nc2ccc(-n3nc(C(F)(F)F)cc3C(F)(F)F)cc2)CC1(Cl)Cl (centres unmarked) [Example 3]
Response given: 100

Challenge: Find the measured inhibition at 10 µM of O=C(Nc1ccc(-n2nc(C(F)(F)F)cc2C(F)(F)F)cc1)c1cccc(I)c1 [Example 25] and report it.
Response given: 100

Challenge: Supply inhibition at 10 µM value. Item: O=C(Nc1ccc(-n2nc(C(F)(F)F)cc2C(F)(F)F)cc1)c1cccc(F)c1F [Example 209]
Response given: 99

Challenge: For the molecule O=C(Nc1ccc(-n2nc(C(F)(F)F)cc2C(F)(F)F)cc1)c1ccc(CO)cc1 [Example 107] , give its reported inhibition at 10 µM.
Response given: 99

Challenge: Name the recorded inhibition at 10 µM of the molecule listed here: O=C(Nc1ccc(-n2nc(C(F)(F)F)cc2C(F)(F)F)cc1)c1cc(F)c(F)cc1Cl [Example 223]
Response given: 100

Challenge: Answer with the recorded inhibition at 10 µM of O=C(Nc1ccc(-n2nc(C(F)(F)F)cc2C(F)(F)F)cc1)c1c(F)c(F)c(Br)c(F)c1F [Example 236] only.
Response given: 100

Challenge: Name the recorded inhibition at 10 µM of the item O=C(Nc1ccc(-n2nc(C(F)(F)F)cc2C(F)(F)F)cc1)C1=CCCCC1 [Example 6] in your answer.
Response given: 100

Challenge: Report inhibition at 10 µM, nothing else, for this molecule: O=C(Nc1ccc(-n2nc(C(F)(F)F)cc2C(F)(F)F)cc1)c1cc(F)c(F)c(F)c1 [Example 227]
Response given: 100

Challenge: # return recorded inhibition at 10 µM for input O=C(Nc1ccc(-n2nc(C(F)(F)F)cc2C(F)(F)F)cc1)c1cnc(Cl)c(Cl)c1 [Example 268]
Response given: 100

Challenge: Respond only with inhibition at 10 µM recorded for O=C(Nc1ccc(-n2nc(C(F)(F)F)cc2C(F)(F)F)cc1)c1ccncc1 [Example 116]
Response given: 100

Challenge: Please supply the value of reported inhibition at 10 µM for the item O=C(Nc1ccc(-n2nc(C(F)(F)F)cc2C(F)(F)F)cc1)c1ccc(F)cc1C(F)(F)F [Example 201]
Response given: 100

Challenge: Report inhibition at 10 µM for O=C(Nc1ccc(-n2nc(C(F)(F)F)cc2C(F)(F)F)cc1)c1ccc([N+](=O)[O-])o1 [Example 247]
Response given: 97

Challenge: Look up inhibition at 10 µM of O=C(Nc1ccc(-n2nc(C(F)(F)F)cc2C(F)(F)F)cc1)c1ccc(Br)cc1Cl [Example 217] and report it.
Response given: 100

Challenge: For the molecule O=C(Nc1ccc(-n2nc(C(F)(F)F)cc2C(F)(F)F)cc1)C1=CCCC1 [Example 10] , give its measured inhibition at 10 µM value.
Response given: 100

Challenge: Indicate the recorded inhibition at 10 µM value for this molecule: COc1cccc(O)c1C(=O)Nc1ccc(-n2nc(C(F)(F)F)cc2C(F)(F)F)cc1 [Example 182]
Response given: 83

Challenge: Dear colleague, please send me the reported inhibition at 10 µM for O=C(Nc1ccc(-n2nc(C(F)(F)F)cc2C(F)(F)F)cc1)c1cccc(Cl)c1F [Example 214] when you can.
Response given: 100

Challenge: Look up and state reported inhibition at 10 µM for O=C(O)c1ccc(C(=O)Nc2ccc(-n3nc(C(F)(F)F)cc3C(F)(F)F)cc2)cc1 [Example 157]
Response given: 42

Challenge: Give the reported value of inhibition at 10 µM for this record: N#Cc1cccc(/C=C/c2ccc(-n3nc(C(F)(F)F)cc3C(F)(F)F)cc2)c1 [Example 132]
Response given: 56

Challenge: For O=C(Nc1ccc(-n2nc(C(F)(F)F)cc2C(F)(F)F)cc1)C1CC=CCC1 (centres unmarked) [Example 29] , write its inhibition at 10 µM.
Response given: 100

Challenge: Please indicate inhibition at 10 µM recorded for O=C(Nc1ccc(-n2nc(C(F)(F)F)cc2C(F)(F)F)cc1)c1c(F)cccc1Cl [Example 212]
Response given: 99

Challenge: Complete the entry with inhibition at 10 µM for O=C(Nc1ccc(-n2nc(C(F)(F)F)cc2C(F)(F)F)cc1)C1CCOC1 (centres unmarked) [Example 243]
Response given: 99

Challenge: Consider the molecule O=C(Nc1ccc(-n2nc(C(F)(F)F)cc2C(F)(F)F)cc1)c1cc(Br)c(Br)s1 [Example 263] . State its measured inhibition at 10 µM.
Response given: 100

Challenge: Kindly indicate its recorded inhibition at 10 µM. Item: O=C(Nc1ccc(-n2nc(C(F)(F)F)cc2C(F)(F)F)cc1)c1ccc(F)c(F)c1 [Example 218]
Response given: 100

Challenge: Output inhibition at 10 µM of COc1ccc(C(=O)Nc2ccc(-n3nc(C(F)(F)F)cc3C(F)(F)F)cc2)cc1Br [Example 221]
Response given: 98

Challenge: Fill in inhibition at 10 µM for record Cc1cc(Br)ccc1NC(=O)Nc1ccc(-n2nc(C(F)(F)F)cc2C(F)(F)F)cc1 [Example 77]
Response given: 93

Challenge: State, in one line, measured inhibition at 10 µM of O=C(Nc1ccc(-n2nc(C(F)(F)F)cc2C(F)(F)F)cc1)c1cc(F)c(F)c(F)c1F [Example 235]
Response given: 100

Challenge: Using the record for NC(=O)c1cccc(C(=O)Nc2ccc(-n3nc(C(F)(F)F)cc3C(F)(F)F)cc2)c1 [Example 138] , state its measured inhibition at 10 µM.
Response given: 99

Challenge: Note inhibition at 10 µM for the molecule shown: O=C(Nc1ccc(-n2nc(C(F)(F)F)cc2C(F)(F)F)cc1)Nc1ccc([N+](=O)[O-])cc1Cl [Example 41]
Response given: 100

Challenge: Give the value of inhibition at 10 µM reported for the following: O=C(Nc1ccc(-n2nc(C(F)(F)F)cc2C(F)(F)F)cc1)c1cccnc1 [Example 106]
Response given: 100

Challenge: Fill in inhibition at 10 µM for record CC1CC1C(=O)Nc1ccc(-n2nc(C(F)(F)F)cc2C(F)(F)F)cc1 (centres unmarked) [Example 7]
Response given: 97
